This section presents compounds with their documented IC50 / EC50 values.
Molecular target: WT human SLACK (Homo sapiens, UniProt Q5JUK3)
Sequence (Q5JUK3 1-1235 isoform Q5JUK3-3): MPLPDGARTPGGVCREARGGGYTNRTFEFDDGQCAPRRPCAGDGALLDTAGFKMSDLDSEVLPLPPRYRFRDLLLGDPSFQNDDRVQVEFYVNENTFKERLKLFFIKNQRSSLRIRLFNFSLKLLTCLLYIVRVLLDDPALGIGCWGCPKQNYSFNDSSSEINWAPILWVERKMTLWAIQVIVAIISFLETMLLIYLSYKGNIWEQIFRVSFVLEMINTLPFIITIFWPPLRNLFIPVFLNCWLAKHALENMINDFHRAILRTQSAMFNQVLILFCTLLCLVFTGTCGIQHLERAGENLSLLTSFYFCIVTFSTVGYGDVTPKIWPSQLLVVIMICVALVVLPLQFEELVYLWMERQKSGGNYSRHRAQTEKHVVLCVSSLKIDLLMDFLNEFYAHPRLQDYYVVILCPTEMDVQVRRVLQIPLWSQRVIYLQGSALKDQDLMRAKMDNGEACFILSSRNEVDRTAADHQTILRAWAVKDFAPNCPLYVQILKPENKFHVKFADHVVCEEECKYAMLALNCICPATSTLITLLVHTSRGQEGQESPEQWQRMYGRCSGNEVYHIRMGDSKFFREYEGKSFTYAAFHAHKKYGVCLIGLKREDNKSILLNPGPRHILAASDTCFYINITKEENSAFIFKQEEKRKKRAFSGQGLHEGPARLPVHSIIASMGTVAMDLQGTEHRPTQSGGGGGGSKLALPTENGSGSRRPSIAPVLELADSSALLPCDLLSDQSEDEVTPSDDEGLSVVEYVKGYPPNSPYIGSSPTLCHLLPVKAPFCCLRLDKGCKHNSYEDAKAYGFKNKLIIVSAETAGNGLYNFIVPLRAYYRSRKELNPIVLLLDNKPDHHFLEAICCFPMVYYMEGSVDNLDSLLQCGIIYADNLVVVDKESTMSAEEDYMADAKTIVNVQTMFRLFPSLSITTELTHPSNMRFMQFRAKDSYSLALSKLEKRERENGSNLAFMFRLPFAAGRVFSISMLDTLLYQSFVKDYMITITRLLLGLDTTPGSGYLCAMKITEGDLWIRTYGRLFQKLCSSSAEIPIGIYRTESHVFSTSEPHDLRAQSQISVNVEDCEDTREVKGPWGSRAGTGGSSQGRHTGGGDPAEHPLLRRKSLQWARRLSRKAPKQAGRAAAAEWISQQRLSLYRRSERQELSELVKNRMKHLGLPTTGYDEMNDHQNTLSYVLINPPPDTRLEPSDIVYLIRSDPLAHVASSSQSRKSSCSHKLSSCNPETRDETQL
Assay: Tl+ flux assay in HEK-293 cells stably expressing WT human SLACK
Assay type: cell-based
Settings: CRC; EC50 for compounds of mode Act

{"columns": ["COMPOUND", "READOUT UNIT", "COMPARISON SYMBOL", "IC50 / EC50"],
 "data": [
  ["O=S(=O)(c1cccc(C(F)(F)F)c1)N1CC(c2nc(-c3ccsc3)no2)C1", "µM", "=", 6.2],
  ["CCOc1ccccc1S(=O)(=O)N1CC(c2nc(-c3ccccc3OC)no2)C1", "µM", ">", 10],
  ["O=S(=O)(c1cccc(F)c1)N1CC(c2nc(-c3ccsc3)no2)C1", "µM", ">", 10],
  ["CCOc1ccccc1S(=O)(=O)N1CC(C)(c2nc(-c3ccc(F)cc3)no2)C1", "µM", "=", 4.0],
  ["CCOc1ccccc1C(C)N1CC(c2nc(-c3ccsc3)no2)C1 (stereo not drawn)", "µM", ">", 10],
  ["Cc1cn2cccc(S(=O)(=O)N3CC(c4nc(-c5ccc(F)cc5)no4)C3)c2n1", "µM", ">", 10],
  ["CCOc1ccccc1CC(=O)N1CC(c2nc(-c3ccsc3)no2)C1", "µM", ">", 10],
  ["CCOc1ccccc1S(=O)(=O)N1CC(c2ncc(-c3ccc(F)cc3)o2)C1", "µM", "=", 10],
  ["O=S(=O)(c1cccc2ccoc12)N1CC(c2nc(-c3ccc(F)cc3)no2)C1", "µM", "=", 2.3]
]}
